Molecular target: UniProt P49366
Sequence (whole entry): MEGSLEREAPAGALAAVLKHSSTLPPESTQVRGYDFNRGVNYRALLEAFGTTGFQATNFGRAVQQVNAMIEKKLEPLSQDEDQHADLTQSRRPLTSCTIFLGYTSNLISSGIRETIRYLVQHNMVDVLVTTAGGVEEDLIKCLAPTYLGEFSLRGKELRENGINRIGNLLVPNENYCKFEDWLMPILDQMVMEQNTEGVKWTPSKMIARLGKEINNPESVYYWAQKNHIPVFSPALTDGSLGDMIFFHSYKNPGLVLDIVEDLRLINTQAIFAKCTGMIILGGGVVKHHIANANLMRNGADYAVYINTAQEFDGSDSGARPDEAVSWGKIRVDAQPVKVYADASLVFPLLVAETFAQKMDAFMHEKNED
Assay: Effect on protein synthesis in CHO cells at concentration 10 uM.
Conditions: Cricetulus griseus
# cutoff 80% applies to Control; >= gives true (1), < gives false (0)

{"Molecule": "N=C(N)NCCCSCCCNC(=N)N", "Group": "false (0)"}
{"Molecule": "N=C(N)NCCCCCNCCCCCNC(=N)N", "Group": "true (1)"}
{"Molecule": "NCCCCCCNCCCCCCN=C(N)N", "Group": "false (0)"}
{"Molecule": "NCCCOCCCN", "Group": "true (1)"}
{"Molecule": "N=C(N)NCCCCCCNCCCCCCNC(=N)N", "Group": "true (1)"}
{"Molecule": "N=C(N)NCCCCNCCCCNC(=N)N", "Group": "true (1)"}
{"Molecule": "NCCCNCCCN=C(N)N", "Group": "false (0)"}
{"Molecule": "NCCCCCNCCCCCN=C(N)N", "Group": "false (0)"}
{"Molecule": "N=C(N)NCCCCCCCCNCCCCCCCCNC(=N)N [IMINOCTADIENE]", "Group": "true (1)"}
{"Molecule": "N=C(N)NCCCCCCCNCCCCCCCNC(=N)N", "Group": "false (0)"}
{"Molecule": "NCCCCCCCNCCCCCCCN=C(N)N", "Group": "false (0)"}
{"Molecule": "NCCCCNCCCCN=C(N)N", "Group": "true (1)"}
{"Molecule": "NCCCSCCCN=C(N)N", "Group": "false (0)"}
{"Molecule": "N=C(N)NCCCCCCCN", "Group": "false (0)"}
{"Molecule": "NCCCCCCCCNCCCCCCCCN=C(N)N", "Group": "false (0)"}
{"Molecule": "NCCCOCCCN=C(N)N", "Group": "true (1)"}
{"Molecule": "CCNCCCCCCCN=C(N)N", "Group": "false (0)"}

* * *

Tested on: CHO
Assay: Effect on spermidine uptake in CHO cells at concentration 10 uM.
Format: functional
Control values for the compounds below.
Measured endpoint: Control (%)

{"Smiles text": "NCCCOCCCN", "Measured endpoint": "Control", "Unit symbol": "%", "Reported measurement": 100}
{"Smiles text": "NCCCSCCCN", "Measured endpoint": "Control", "Unit symbol": "%", "Reported measurement": 100}
{"Smiles text": "N=C(N)NCCCCCCCCNCCCCCCCCNC(=N)N", "Measured endpoint": "Control", "Unit symbol": "%", "Reported measurement": 95}

* * *

Molecular target: Deoxyhypusine synthase (Homo sapiens)
Sequence (whole entry): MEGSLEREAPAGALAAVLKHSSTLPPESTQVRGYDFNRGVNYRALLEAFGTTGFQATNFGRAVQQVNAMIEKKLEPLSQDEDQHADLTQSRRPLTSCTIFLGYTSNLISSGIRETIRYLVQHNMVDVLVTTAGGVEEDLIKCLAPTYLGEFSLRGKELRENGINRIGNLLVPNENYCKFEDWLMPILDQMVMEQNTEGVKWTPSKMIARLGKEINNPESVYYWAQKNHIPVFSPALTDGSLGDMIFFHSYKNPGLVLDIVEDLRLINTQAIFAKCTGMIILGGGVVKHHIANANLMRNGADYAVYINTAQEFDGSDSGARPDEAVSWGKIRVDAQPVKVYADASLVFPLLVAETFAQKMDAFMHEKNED
Assay: Effect on protein synthesis in CHO cells at concentration 3 uM.
Conditions: Cricetulus griseus

{"Smiles text": "N=C(N)NCCCCCCCN", "Control / %": 62}
{"Smiles text": "N=C(N)NCCCOCCCNC(=N)N", "Control / %": 100}
{"Smiles text": "N=C(N)NCCCCCCCNCCCCCCCNC(=N)N", "Control / %": 88}
{"Smiles text": "N=C(N)NCCCCNCCCCNC(=N)N", "Control / %": 100}
{"Smiles text": "NCCCOCCCN=C(N)N", "Control / %": 98}
{"Smiles text": "NCCCCCCCNCCCCCCCN=C(N)N", "Control / %": 24}
{"Smiles text": "NCCCCCCNCCCCCCN=C(N)N", "Control / %": 45}
{"Smiles text": "NCCCCCCCCNCCCCCCCCN=C(N)N", "Control / %": 20}
{"Smiles text": "N=C(N)NCCCNCCCNC(=N)N", "Control / %": 80}
{"Smiles text": "NCCCSCCCN=C(N)N", "Control / %": 40}
{"Smiles text": "NCCCCCNCCCCCN=C(N)N", "Control / %": 80}
{"Smiles text": "N=C(N)NCCCCCCNCCCCCCNC(=N)N", "Control / %": 93}
{"Smiles text": "NCCCNCCCN=C(N)N", "Control / %": 77}
{"Smiles text": "N=C(N)NCCCCCCCCNCCCCCCCCNC(=N)N", "Control / %": 100}
{"Smiles text": "N=C(N)NCCCCCNCCCCCNC(=N)N", "Control / %": 100}

* * *

Target: Deoxyhypusine synthase (Homo sapiens)
Experiment: Effect on Hypusine formation in CHO cells at concentration 10 uM.
Format: functional, cell-based
Details: Cricetulus griseus
Cut-off 70% on Control: below means condition met, at or above means condition not met.

{"Compound": "NCCCSCCCN=C(N)N", "Group": "condition met"}
{"Compound": "NCCCOCCCN", "Group": "condition not met"}
{"Compound": "NCCCCCCCCNCCCCCCCCN=C(N)N", "Group": "condition met"}
{"Compound": "CCNCCCCCCCN=C(N)N", "Group": "condition met"}
{"Compound": "N=C(N)NCCCCCNCCCCCNC(=N)N", "Group": "condition not met"}
{"Compound": "N=C(N)NCCCCCCNCCCCCCNC(=N)N", "Group": "condition not met"}
{"Compound": "NCCCSCCCN", "Group": "condition not met"}
{"Compound": "N=C(N)NCCCNCCCNC(=N)N", "Group": "condition not met"}
{"Compound": "N=C(N)NCCCCCCCNCCCCCCCNC(=N)N", "Group": "condition not met"}
{"Compound": "NCCCCCCCNCCCCCCCN=C(N)N", "Group": "condition met"}
{"Compound": "N=C(N)NCCCOCCCNC(=N)N", "Group": "condition not met"}
{"Compound": "N=C(N)NCCCCCCCCNCCCCCCCCNC(=N)N [IMINOCTADIENE]", "Group": "condition not met"}
{"Compound": "NCCCCCNCCCCCN=C(N)N", "Group": "condition not met"}
{"Compound": "NCCCCNCCCCN=C(N)N", "Group": "condition met"}
{"Compound": "NCCCCCCNCCCCCCN=C(N)N", "Group": "condition met"}
{"Compound": "NCCCNCCCN=C(N)N", "Group": "condition met"}
{"Compound": "NCCCOCCCN=C(N)N", "Group": "condition met"}
{"Compound": "N=C(N)NCCCCNCCCCNC(=N)N", "Group": "condition not met"}
{"Compound": "N=C(N)NCCCSCCCNC(=N)N", "Group": "condition not met"}

* * *

# Control annotations
Target: Deoxyhypusine synthase (Homo sapiens) (UniProt P49366)
Assay: Effect on Hypusine formation in CHO cells at concentration 3 uM.
Type: functional, cell-based
Conditions: Cricetulus griseus
Measured endpoint: Control (%)

{"Smiles text": "N=C(N)NCCCSCCCNC(=N)N", "Target system": "Deoxyhypusine synthase (Homo sapiens) (UniProt P49366)", "Measured endpoint": "Control", "Unit symbol": "%", "Reported measurement": 100}
{"Smiles text": "NCCCOCCCN", "Target system": "Deoxyhypusine synthase (Homo sapiens) (UniProt P49366)", "Measured endpoint": "Control", "Unit symbol": "%", "Reported measurement": 100}
{"Smiles text": "N=C(N)NCCCOCCCNC(=N)N", "Target system": "Deoxyhypusine synthase (Homo sapiens) (UniProt P49366)", "Measured endpoint": "Control", "Unit symbol": "%", "Reported measurement": 100}
{"Smiles text": "NCCCOCCCN=C(N)N", "Target system": "Deoxyhypusine synthase (Homo sapiens) (UniProt P49366)", "Measured endpoint": "Control", "Unit symbol": "%", "Reported measurement": 76}
